assay protocol: Determination of solubility of Nic drug and solid dispersions
Type: physicochemical
cond: saturated citric acid solution, 37 °C, aqueous buffer, thermodynamic from solid, saturated citric acid solution, read-out: Solubility of Saturated Citric Acid Solution mg/ml (37° C.)
Counter-ions that a name gives are not always drawn.
quantity: solubility at 2 h (mg/mL)
Give bare numbers, in mg/mL.

*Q* Reported solubility at 2 h, compound COC(=O)C1=C(C)NC(C)=C(C(=O)OCCN(C)Cc2ccccc2)C1c1cccc([N+](=O)[O-])c1 (stereo not drawn) [α-Form Nic, nicardipine hydrochloride] : ____
*A* 46

###

assay protocol: Determination of solubility of Nic drug and solid dispersions
Assay type: physicochemical
cond: water, 37 °C, water, thermodynamic from solid, water, read-out: Solubility in Water mg/ml (37° C.)
Where a name gives a salt, the structure may show the parent alone.
quantity: solubility at 2 h (mg/mL)
Give bare numbers, in mg/mL.

*Q* Suppose we examine the compound COC(=O)C1=C(C)NC(C)=C(C(=O)OCCN(C)Cc2ccccc2)C1c1cccc([N+](=O)[O-])c1 (stereo not drawn) [α-Form Nic, nicardipine hydrochloride] ; what solubility at 2 h value has been reported?
*A* 7.2

Each recorded value in this set is attributed to patent US20250144030A1.
